study system: equine FcRn (large alpha subunit p51) / equine beta-2-microglobulin complex, biotinylated (equine) (UniProt P30441)
protocol text: SPR (Biacore), pH 6
pKd: −log10 of the molar value.
assay endpoint: pKd

binder	obs value
equine IgG1 M428T (antibody, part only; not given: variable domains, not shown: another chain or arm of the molecule) constant: ASTTAPKVFALAPGCGTTSDSTVALGCLVSGYFPEPVKVSWNSGSLTSGVHTFPSVLQSSGFYSLSSMVTVPASTWTSETYICNVVHAASNFKVDKRIEPIPDNHQKVCDMSKCPKCPAPELLGGPSVFIFPPNPKDTLMITRTPEVTCVVVDVSQENPDVKFNWYMDGVEVRTATTRPKEEQFNSTYRVVSVLRIQHQDWLSGKEFKCKVNNQALPQPIERTITKTKGRSQEPQVYVLAPHPDELSKSKVSVTCLVKDFYPPEINIEWQSNGQPELETKYSTTQAQQDSDGSYFLYSKLSVDRNRWQQGTTFTCGVTHEALHNHYTQKNVSKNPGK	7.46
equine IgG4 T286E (antibody, part only; not given: variable domains, not shown: another chain or arm of the molecule) constant: ASTTAPKVFPLASHSAATSGSTVALGCLVSSYFPEPVTVSWNSGALTSGVHTFPSVLQSSGLYSLSSMVTVPASSLKSQTYICNVAHPASSTKVDKKIVIKECNGGCPAECLQVGPSVFIFPPKPKDVLMISRTPTVTCVVVDVGHDFPDVQFNWYVDGVETHEATTEPKQEQFNSTYRVVSVLPIQHKDWLSGKEFKCKVNNKALPAPVERTISKPTGQPREPQVYVLAPHRDELSKNKVSVTCLVKDFYPTDIDIEWKSNGQPEPETKYSTTPAQLDSDGSYFLYSKLTVETNRWQQGTTFTCAVMHEALHNHYTEKSVSKSPGK	6.60
equine IgG4 N434L (antibody, part only; not given: variable domains, not shown: another chain or arm of the molecule) constant: ASTTAPKVFPLASHSAATSGSTVALGCLVSSYFPEPVTVSWNSGALTSGVHTFPSVLQSSGLYSLSSMVTVPASSLKSQTYICNVAHPASSTKVDKKIVIKECNGGCPAECLQVGPSVFIFPPKPKDVLMISRTPTVTCVVVDVGHDFPDVQFNWYVDGVETHTATTEPKQEQFNSTYRVVSVLPIQHKDWLSGKEFKCKVNNKALPAPVERTISKPTGQPREPQVYVLAPHRDELSKNKVSVTCLVKDFYPTDIDIEWKSNGQPEPETKYSTTPAQLDSDGSYFLYSKLTVETNRWQQGTTFTCAVMHEALHLHYTEKSVSKSPGK	7.31
equine IgG4 M428Q (antibody, part only; not given: variable domains, not shown: another chain or arm of the molecule) constant: ASTTAPKVFPLASHSAATSGSTVALGCLVSSYFPEPVTVSWNSGALTSGVHTFPSVLQSSGLYSLSSMVTVPASSLKSQTYICNVAHPASSTKVDKKIVIKECNGGCPAECLQVGPSVFIFPPKPKDVLMISRTPTVTCVVVDVGHDFPDVQFNWYVDGVETHTATTEPKQEQFNSTYRVVSVLPIQHKDWLSGKEFKCKVNNKALPAPVERTISKPTGQPREPQVYVLAPHRDELSKNKVSVTCLVKDFYPTDIDIEWKSNGQPEPETKYSTTPAQLDSDGSYFLYSKLTVETNRWQQGTTFTCAVQHEALHNHYTEKSVSKSPGK	7.52
equine IgG1 N434V (antibody, part only; not given: variable domains, not shown: another chain or arm of the molecule) constant: ASTTAPKVFALAPGCGTTSDSTVALGCLVSGYFPEPVKVSWNSGSLTSGVHTFPSVLQSSGFYSLSSMVTVPASTWTSETYICNVVHAASNFKVDKRIEPIPDNHQKVCDMSKCPKCPAPELLGGPSVFIFPPNPKDTLMITRTPEVTCVVVDVSQENPDVKFNWYMDGVEVRTATTRPKEEQFNSTYRVVSVLRIQHQDWLSGKEFKCKVNNQALPQPIERTITKTKGRSQEPQVYVLAPHPDELSKSKVSVTCLVKDFYPPEINIEWQSNGQPELETKYSTTQAQQDSDGSYFLYSKLSVDRNRWQQGTTFTCGVMHEALHVHYTQKNVSKNPGK	7.51
equine IgG4 T286G (antibody, part only; not given: variable domains, not shown: another chain or arm of the molecule) constant: ASTTAPKVFPLASHSAATSGSTVALGCLVSSYFPEPVTVSWNSGALTSGVHTFPSVLQSSGLYSLSSMVTVPASSLKSQTYICNVAHPASSTKVDKKIVIKECNGGCPAECLQVGPSVFIFPPKPKDVLMISRTPTVTCVVVDVGHDFPDVQFNWYVDGVETHGATTEPKQEQFNSTYRVVSVLPIQHKDWLSGKEFKCKVNNKALPAPVERTISKPTGQPREPQVYVLAPHRDELSKNKVSVTCLVKDFYPTDIDIEWKSNGQPEPETKYSTTPAQLDSDGSYFLYSKLTVETNRWQQGTTFTCAVMHEALHNHYTEKSVSKSPGK	7.63
equine IgG4 Y436I (antibody, part only; not given: variable domains, not shown: another chain or arm of the molecule) constant: ASTTAPKVFPLASHSAATSGSTVALGCLVSSYFPEPVTVSWNSGALTSGVHTFPSVLQSSGLYSLSSMVTVPASSLKSQTYICNVAHPASSTKVDKKIVIKECNGGCPAECLQVGPSVFIFPPKPKDVLMISRTPTVTCVVVDVGHDFPDVQFNWYVDGVETHTATTEPKQEQFNSTYRVVSVLPIQHKDWLSGKEFKCKVNNKALPAPVERTISKPTGQPREPQVYVLAPHRDELSKNKVSVTCLVKDFYPTDIDIEWKSNGQPEPETKYSTTPAQLDSDGSYFLYSKLTVETNRWQQGTTFTCAVMHEALHNHITEKSVSKSPGK	7.92
equine IgG4 M428C (antibody, part only; not given: variable domains, not shown: another chain or arm of the molecule) constant: ASTTAPKVFPLASHSAATSGSTVALGCLVSSYFPEPVTVSWNSGALTSGVHTFPSVLQSSGLYSLSSMVTVPASSLKSQTYICNVAHPASSTKVDKKIVIKECNGGCPAECLQVGPSVFIFPPKPKDVLMISRTPTVTCVVVDVGHDFPDVQFNWYVDGVETHTATTEPKQEQFNSTYRVVSVLPIQHKDWLSGKEFKCKVNNKALPAPVERTISKPTGQPREPQVYVLAPHRDELSKNKVSVTCLVKDFYPTDIDIEWKSNGQPEPETKYSTTPAQLDSDGSYFLYSKLTVETNRWQQGTTFTCAVCHEALHNHYTEKSVSKSPGK	7.27
